// endpoint pIC50 / system Aurora B (Homo sapiens, UniProt Q96GD4)
pIC50: −log10 of the molar value.

Examples with answers:
compound: COc1ccc2c(c1)[C@]1(C[C@H]1c1ccc3c(/C=C/c4ccc(N5CCN(C(C)C)CC5)cc4)n[nH]c3c1)C(=O)N2 (relative stereo) [Example A189, 2,2,2-trifluoroacetate]
val: > 7.00
//
compound: COc1ccc2c(c1)[C@]1(C[C@@H]1c1ccc3c(-c4ccc(N5CCN(C)CC5)nc4)n[nH]c3c1)C(=O)N2 (relative stereo)
val: 6.00 to 7.00
//
compound: CN1CCN(c2ccc(-c3n[nH]c4cc([C@@H]5C[C@@]56C(=O)Nc5ccc(OC(F)F)cc56)ccc34)cn2)CC1 (relative stereo)
val: > 7.00
//
compound: CCN1Cc2ccc(/C=C/c3n[nH]c4cc([C@@H]5C[C@@]56C(=O)Nc5ccc(OC)cc56)ccc34)cc2C1 (relative stereo) [Example A190, 2,2,2-trifluoroacetate]
val: > 7.00
//
compound: COc1ccc2c(c1)C1(CC1c1ccc3c(I)n[nH]c3c1)C(=O)N2 (stereo not drawn)
val: 6.00 to 7.00
//
compound: COc1ccc2c(c1)[C@]1(C[C@H]1c1ccc3c(-c4cccc(CN5CCOCC5)c4)n[nH]c3c1)C(=O)N2 (relative stereo) [Example A136, 2,2,2-trifluoroacetate]
val: > 7.00

Challenge: In one line, give reported pIC50 of the entry CN1CCN(c2ccc(-c3n[nH]c4cc([C@@H]5C[C@@]56C(=O)Nc5ccccc56)ccc34)cn2)CC1 (racemic) .
Response given: > 7.00

Challenge: In one line, give reported pIC50 of the entry NC(=O)CN1C(=O)[C@@]2(C[C@H]2c2ccc3c(/C=C/c4ccc(CN5CCCCC5)cc4)n[nH]c3c2)c2ccccc21 (relative stereo) [Example A165, 2,2,2-trifluoroacetate] .
Response given: > 7.00

Challenge: In one line, give reported pIC50 of the entry COc1cc2c(cc1OC)[C@]1(C[C@H]1c1ccc3c(/C=C/c4ccc(CN(C)C)cc4)n[nH]c3c1)C(=O)N2 (relative stereo) [Example A168, 2,2,2-trifluoroacetate] .
Response given: > 7.00

Challenge: In one line, give reported pIC50 of the entry CC(C)CCN1C(=O)[C@@]2(C[C@H]2c2ccc3c(/C=C/c4ccc(CN(C)C)cc4)n[nH]c3c2)c2ccccc21 (relative stereo) .
Response given: 6.00 to 7.00

Challenge: In one line, give reported pIC50 of the entry COc1ccc2c(c1)[C@]1(C[C@H]1c1ccc3c(-c4ccc(N5CCN(C)CC5)cc4)n[nH]c3c1)C(=O)N2 (relative stereo) .
Response given: > 7.00

Challenge: In one line, give reported pIC50 of the entry COc1ccc2c(c1)[C@]1(C[C@H]1c1ccc3c(C#Cc4ccc(CN5CCN(C)CC5)cc4)n[nH]c3c1)C(=O)N2 (relative stereo) [Example A145, bis(2,2,2-trifluoroacetate)] .
Response given: 6.00 to 7.00

Challenge: In one line, give reported pIC50 of the entry CN1CCN(C(=O)c2ccc(-c3n[nH]c4cc([C@@H]5C[C@@]56C(=O)Nc5ccccc56)ccc34)cc2)CC1 (relative stereo) [Example A156, 2,2,2-trifluoroacetate] .
Response given: 6.00 to 7.00

###

compounds and their reported pIC50
- assayed-target: human PLK4 (Homo sapiens, UniProt O00444)
- Construct: amino terminal GST fusion of residues 1-391 of human PLK4; made in house; host or cells: E. coli
- Sequence (O00444 1-391): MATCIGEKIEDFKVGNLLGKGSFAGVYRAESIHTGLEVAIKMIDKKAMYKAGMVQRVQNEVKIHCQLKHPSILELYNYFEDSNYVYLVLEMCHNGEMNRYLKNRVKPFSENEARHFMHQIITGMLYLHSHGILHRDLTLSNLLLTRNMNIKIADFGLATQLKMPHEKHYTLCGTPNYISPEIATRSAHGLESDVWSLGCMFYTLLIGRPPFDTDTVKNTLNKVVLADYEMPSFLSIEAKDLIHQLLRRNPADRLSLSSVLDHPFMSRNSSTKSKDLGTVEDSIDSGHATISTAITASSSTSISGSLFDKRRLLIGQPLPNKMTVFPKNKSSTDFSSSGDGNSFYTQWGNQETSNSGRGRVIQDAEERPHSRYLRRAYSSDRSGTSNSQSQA
- experimental-protocol: PLK4 inhibition assay (indirect ELISA)
- Type: biochemical
- cond: read-out: IC50 Ranges PLK4
pIC50: −log10 of the molar value.

compound: COc1ccc2c(c1)[C@]1(CC1c1ccc3c(/C=C/c4cc(F)c(CN(C)C)c(F)c4)n[nH]c3c1)C(=O)N2 (stereo in doubt)
pIC50: > 7.00

Challenge: In one line, give reported pIC50 of the entry NC(=O)CN1C(=O)[C@@]2(C[C@H]2c2ccc3c(/C=C/c4ccc(CN5CCCCC5)cc4)n[nH]c3c2)c2ccccc21 (relative stereo) [Example A165, 2,2,2-trifluoroacetate] .
Response given: > 7.00

Challenge: In one line, give reported pIC50 of the entry O=C1Nc2ccc(F)cc2[C@]12C[C@H]2c1ccc2c(I)n[nH]c2c1 (relative stereo) .
Response given: 6.00 to 7.00
